# Test system: human beta-coronavirus OC43
# test.details: OC43 coronavirus antiviral assay in HeLa cells (cytopathic effect, cell-titer-glo)
# Assay type: cell-based
# test.parameters: Betacoronavirus 1, OC43, HeLa, 144 h, 6 days at 33° C., read-out: EC50 (class)
endpoint.label: EC50

molecule	endpoint.label	observed.value
CC(C)(C)[C@H](NC(=O)[C@H]1CC1(F)F)C(=O)N1C[C@H]2[C@@H]([C@H]1C(=O)N[C@H](C#N)C[C@@H]1CCNC1=O)[C@H]1C=C[C@@H]2C1	EC50	< 0.1 µM

Please give EC50, item by item, for the list that follows.
1. CC(C)(C)[C@H](NC(=O)C(F)(F)F)C(=O)N1C[C@H]2[C@@H]([C@H]1C(=O)N[C@H](C#N)C[C@@H]1CCNC1=O)[C@H]1CC[C@@H]2O1 (relative stereo) [Compound 58b]
2. CC(C)(C)[C@H](NC(=O)C1CC12CC2)C(=O)N1C[C@H]2[C@@H]([C@H]1C(=O)N[C@H](C#N)C[C@@H]1CCNC1=O)[C@H]1C=C[C@@H]2C1 (some centres unmarked)
3. CC(C)(C)[C@H](NC(=O)C(F)(F)F)C(=O)N1C[C@H]2[C@@H]([C@H]1C(=O)N[C@H](C#N)C[C@@H]1Oc3ccncc3NC1=O)[C@H]1C=C[C@@H]2C1
4. CC(C)(C)[C@H](NC(=O)C(F)(F)Cl)C(=O)N1C[C@H]2[C@@H]([C@H]1C(=O)N[C@H](C#N)C[C@@H]1OCCNC1=O)[C@H]1C=C[C@@H]2C1
5. N#C[C@H](C[C@@H]1CCNC1=O)NC(=O)[C@@H]1[C@@H]2[C@H](CN1C(=O)[C@@H]1C[C@]13CCOc1ccccc13)[C@@H]1C=C[C@H]2C1 (relative stereo)

1. 1 to 10 µM
2. < 0.1 µM
3. < 0.1 µM
4. < 0.1 µM
5. 1 to 10 µM

----------
# target.or.test.system: HRV3C (Human rhinovirus 14)
# Construct: 3CLpro and HRV3C was added using a Multidrop Combi
# Sequence (P03303 1538-1719): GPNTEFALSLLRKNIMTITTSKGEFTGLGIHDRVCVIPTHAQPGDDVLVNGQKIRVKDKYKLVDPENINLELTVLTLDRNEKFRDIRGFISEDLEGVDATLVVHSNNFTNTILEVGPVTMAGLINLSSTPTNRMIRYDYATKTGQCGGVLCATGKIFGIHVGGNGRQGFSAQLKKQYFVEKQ
# test.details: biochemical
# Set-up: species or system HRV
# test.parameters: HRV3C, 30 mins preincubation, SAMDI-MS; read-out: HRV IC50 (bound)
pIC50: −log10 of the molar value.
I'd be grateful if you could share measured pIC50 for these entries.

molecule	endpoint.label	observed.value
CC(C)(C)[C@H](NC(=O)C(F)(F)F)C(=O)N1C[C@H]2[C@@H]([C@H]1C(=O)N[C@H](C#N)C[C@@H]1Oc3cnccc3NC1=O)[C@H]1C=C[C@@H]2C1	pIC50	< 6.30

Hey, can you go through the list below and give me pIC50 for every item?
1. C=C(C)C(C)(C)[C@H](NC(=O)C(F)(F)F)C(=O)N1C[C@H]2[C@@H]([C@H]1C(=O)N[C@H](C#N)C[C@@H]1CCNC1=O)[C@H]1C=C[C@@H]2C1
2. CC(C)(C1CC1)[C@H](NC(=O)C(F)(F)F)C(=O)N1C[C@H]2[C@@H]([C@H]1C(=O)N[C@H](C#N)C[C@@H]1CCNC1=O)[C@H]1C=C[C@@H]2C1
3. CC(C)(C)[C@H](NC(=O)C(F)(F)F)C(=O)N1C[C@H]2[C@@H]([C@H]1C(=O)NC(C#N)C[C@]13CC[C@H](C1)NC3=O)[C@H]1C=C[C@@H]2C1 (some centres unmarked)
4. CC(C)(C)[C@H](OCC1CC1)C(=O)N1C[C@H]2[C@@H]([C@H]1C(=O)N[C@H](C#N)C[C@@H]1CCNC1=O)[C@H]1C=C[C@@H]2C1
5. CC(C)(C)[C@H](NC(=O)C(F)(F)F)C(=O)N1C[C@H]2[C@@H]([C@H]1C(=O)N[C@H](C#N)C[C@@H]1Oc3ccccc3NC1=O)[C@H]1C=C[C@@H]2C1

1. < 5.00
2. < 5.00
3. < 5.00
4. < 5.00
5. < 5.00
